assay: in vitro; format: in vitro ADME, mouse; settings: mouse; Table 1; 1 μM compound, 0.5 mg/mL pooled C57BL/6 microsomes, 120 min; read-out: Mouse liver microsome t1/2
Recorded Endpoint: half-life (min)

Molecule: CC(=O)OC1C2OC2C(C)C(=O)C(C)CC=CC2C3OC3(C)C(C)C3C(Cc4cccc(Cl)c4)NC(=O)C213 (centres unmarked) [Compound 16]
Unit Of Measurement: min
Comparison Symbol: =
Reported Value: 1.4

Molecule: CC(=O)OC1C2OC2C(C)(O)C(=O)C(C)CC=CC2C(O)C(C)=C(C)C3C(Cc4ccccc4)NC(=O)C213 (centres unmarked) [Compound 3, 19,20-epoxycytochalasin C]
Unit Of Measurement: min
Comparison Symbol: =
Reported Value: 43.9

Molecule: CC(=O)OC1C(C)=C(C)C2C(Cc3ccccc3)NC(=O)C23C1C=CCC(C)C(=O)C(C)(O)C1OC1C3OC(C)=O (centres unmarked) [Compound 23, 7-acetyl-19,20-epoxycytochalasin C]
Unit Of Measurement: min
Comparison Symbol: =
Reported Value: 6.1

Molecule: CC(=O)OC1C2OC2C(C)(O)C(=O)C(C)CC=CC2C(O)C(C)=C(C)C3C(CC(=O)O)NC(=O)C213 (centres unmarked) [Compound 22, xylachalasin A]
Unit Of Measurement: min
Comparison Symbol: >
Reported Value: 120

Molecule: CC1CC=CC2C3OC3(C)C(C)C3C(Cc4cccc(Cl)c4)NC(=O)C23C(O)C2OC2C(C)(O)C1=O (centres unmarked) [Compound 15]
Unit Of Measurement: min
Comparison Symbol: =
Reported Value: 36

Molecule: CC(=O)OC1C2OC2C(C)C(=O)C(C)CC=CC2C(O)C(C)=C(C)C3C(Cc4ccccc4)NC(=O)C213 (centres unmarked) [Compound 5, 18-desoxy-19,20-epoxycytochalasin C]
Unit Of Measurement: min
Comparison Symbol: =
Reported Value: 11

Molecule: CC1=C(C)C2C(Cc3cccc(Br)c3)NC(=O)C23C(O)C2OC2C(C)(O)C(=O)C(C)CC=CC3C1O (centres unmarked) [Compound 17]
Unit Of Measurement: min
Comparison Symbol: =
Reported Value: 32

Molecule: CC(=O)OC1C2OC2C(C)(O)C(=O)C(C)CC=CC2C3OC3(C)C(C)C3C(Cc4cccc(Br)c4)NC(=O)C213 (centres unmarked) [Compound 18, m-bromo-19,20-epoxycytochalasin Q]
Unit Of Measurement: min
Comparison Symbol: =
Reported Value: 19

Molecule: C=C1C(C)C2C(Cc3ccccc3)NC(=O)C23C(C=CCC(C)C(=O)C(C)(O)C2OC2C3OC(C)=O)C1O (centres unmarked) [Compound 9, 19,20-epoxycytochalasin D]
Unit Of Measurement: min
Comparison Symbol: =
Reported Value: 40

Molecule: CC(=O)OC1C2OC2C(C)(O)C(=O)C(C)CC=CC2C(O)C3(C)OC3(C)C3C(Cc4ccccc4)NC(=O)C213 (centres unmarked) [Compound 27, 19,20-epoxycytochalasin N]
Unit Of Measurement: min
Comparison Symbol: >
Reported Value: 120

Molecule: C#CCCC1(CCC(=O)OC2C(C)=C(C)C3C(Cc4ccccc4)NC(=O)C34C2C=CCC(C)C(=O)C(C)(O)C2OC2C4OC(C)=O)N=N1 (centres unmarked) [Compound 25, 7-diazirin-19,20-epoxycytochalasin C]
Unit Of Measurement: min
Comparison Symbol: =
Reported Value: 1.7

====

Recorded half-life at 1 μM by entry
Assay: in vitro
Type: in vitro ADME, mouse
Settings: Table 1; 1 μM compound, pooled CD-1 mouse plasma; read-out: Mouse plasma t1/2
Procedure: Plasma stability assays: To determine stability in plasma, the compound (1 μM) was incubated with pooled CD-1 mouse plasma (Neo Biotech, Nanterre, France). […] The plasma stability of procain, propantheline and diltiazem were determined in parallel to confirm the enzymatic activity. […] Concentration of the remaining test compound at the different time points was analyzed by HPLC-MS/MS (Vanquish Flex coupled to a TSQ Altis Plus, Thermo Fisher, Dreieich, Germany). […]
Recorded Endpoint: half-life at 1 μM

Compound: CC1=C(C)C2C(Cc3cccc(Br)c3)NC(=O)C23C(O)C2OC2C(C)(O)C(=O)C(C)CC=CC3C1O (stereo not drawn)
Reported Value: > 4 h
//
Compound: C=C1C(C)C2C(Cc3ccccc3)NC(=O)C23C(C=CCC(C)C(=O)C(C)(O)C2OC2C3OC(C)=O)C1O (stereo not drawn)
Reported Value: > 4 h
//
Compound: CC(=O)OC1C2OC2C(C)C(=O)C(C)CC=CC2C(O)C(C)=C(C)C3C(Cc4ccccc4)NC(=O)C213 (stereo not drawn)
Reported Value: > 4 h

Data origin, for the record: paper PMC12848680
